- experimentDescription: Stability in simulated intestinal fluid (SIF)
- Format: in vitro ADME
- experimentalConditions: pH 6.8, 100 fold dilution of standard SIF concentration, 37° C., read-out: SIF t1/2 (converted)
*1 amine or outer side, *2 acyl side, *3 side chain or, on linkers, in order; H or OH if unused. Where a SMILES comes first, the peptide text is derived from it. Bridges are numbered along the chain shown (N, C = ends). [ ]: non-standard residue; d: D form. Trp(7-Ph) = N[C@@H](Cc1c[nH]c2c(-c3ccccc3)cccc12)C(=O)O; Abu(4-yl) = O=C([C@H](CC[*:3])N[*:1])[*:2]; 2Nal = N[C@@H](Cc1ccc2ccccc2c1)C(=O)O; AEF = NCCOc1ccc(C[C@H](N)C(=O)O)cc1; αMeK = C[C@](N)(CCCCN)C(=O)O
quantityKind: half-life at 20 μM (h)
# value in h; strip the unit string

Determine from records and report half-life at 20 μM for CC(=O)NCCCC[C@@H]1NC(=O)[C@H](Cc2c[nH]c3c(-c4ccccc4)cccc23)NC(=O)[C@H]([C@@H](C)O)NC(=O)[C@H](CCC(N)=O)NC(=O)[C@@H](NC(=O)[C@@H](CCCNC(=N)N)NC(C)=O)CCSC[C@@H](C(=O)N[C@@H](Cc2ccc(OCCN)cc2)C(=O)N[C@@H](Cc2ccc3ccccc3c2)C(=O)N[C@@](C)(CCCCN)C(=O)N[C@@H](CCCCNC(C)=O)C(=O)N[C@@H](CC(N)=O)C(N)=O)NC1=O [Peptide 4] (Ac-[dR][Abu(4-yl)]QT[Trp(7-Ph)]K(Ac)C[AEF][2Nal][αMeK]K(Ac)N-NH2; thioether 2-7)
5.1

Let me know recorded half-life at 20 μM for CC(=O)NCCCC[C@@H]1NC(=O)[C@H](Cc2c[nH]c3c(-c4ccccc4)cccc23)NC(=O)[C@H]([C@@H](C)O)NC(=O)[C@H](CC(N)=O)NC(=O)[C@@H](NC(C)=O)C(C)(C)SSC(C)(C)[C@@H](C(=O)N[C@@H](Cc2ccc(OCCN)cc2)C(=O)N[C@@H](Cc2ccc3ccccc3c2)C(=O)N[C@@](C)(CCCCN)C(=O)N[C@@H](CCCCNC(C)=O)C(=O)N[C@@H](CC(N)=O)C(=O)N[C@H](CC(C)C)C(N)=O)NC1=O [Peptide 1] , thanks.
11.1

Tell me half-life at 20 μM reported for CC(=O)NCCCC[C@@H]1NC(=O)[C@H](Cc2c[nH]c3c(-c4ccccc4)cccc23)NC(=O)[C@H]([C@@H](C)O)NC(=O)[C@H](CCC(N)=O)NC(=O)[C@@H](NC(C)=O)CCSC[C@@H](C(=O)N[C@@H](Cc2ccc(OCCN)cc2)C(=O)N[C@@H](Cc2ccc3ccccc3c2)C(=O)N[C@@](C)(CCCCN)C(=O)N[C@@H](CCCCNC(C)=O)C(=O)N[C@@H](CC(N)=O)C(=O)N[C@H](CC(C)C)C(N)=O)NC1=O [Peptide 18] (Ac-[Abu(4-yl)]QT[Trp(7-Ph)]K(Ac)C[AEF][2Nal][αMeK]K(Ac)N[dL]-NH2; thioether 1-6)
19.8

Others:
Kindly indicate its recorded half-life at 20 μM. Item: CC(=O)NCCCC[C@@H]1NC(=O)[C@H](Cc2c[nH]c3c(-c4ccccc4)cccc23)NC(=O)[C@H]([C@@H](C)O)NC(=O)[C@H](CCC(N)=O)NC(=O)[C@@H](NC(C)=O)CCSC[C@@H](C(=O)N[C@@H](Cc2ccc(OCCN)cc2)C(=O)N[C@@H](Cc2ccc3ccccc3c2)C(=O)N[C@@](C)(CCCCN)C(=O)N[C@@H](CCCCNC(C)=O)C(=O)N[C@@H](CC(N)=O)C(=O)N[C@H](CCCCN)C(N)=O)NC1=O [Peptide 19] (Ac-[Abu(4-yl)]QT[Trp(7-Ph)]K(Ac)C[AEF][2Nal][αMeK]K(Ac)N[dK]-NH2; thioether 1-6)
17.8

Cited source for all entries: patent US20230129095A1
